// data source = paper PMC11587516

- experimentalSystem: hGAT2 (Homo sapiens, UniProt Q9NSD5)
- Construct: expressed in transfected cells
- Sequence (Q9NSD5 whole entry): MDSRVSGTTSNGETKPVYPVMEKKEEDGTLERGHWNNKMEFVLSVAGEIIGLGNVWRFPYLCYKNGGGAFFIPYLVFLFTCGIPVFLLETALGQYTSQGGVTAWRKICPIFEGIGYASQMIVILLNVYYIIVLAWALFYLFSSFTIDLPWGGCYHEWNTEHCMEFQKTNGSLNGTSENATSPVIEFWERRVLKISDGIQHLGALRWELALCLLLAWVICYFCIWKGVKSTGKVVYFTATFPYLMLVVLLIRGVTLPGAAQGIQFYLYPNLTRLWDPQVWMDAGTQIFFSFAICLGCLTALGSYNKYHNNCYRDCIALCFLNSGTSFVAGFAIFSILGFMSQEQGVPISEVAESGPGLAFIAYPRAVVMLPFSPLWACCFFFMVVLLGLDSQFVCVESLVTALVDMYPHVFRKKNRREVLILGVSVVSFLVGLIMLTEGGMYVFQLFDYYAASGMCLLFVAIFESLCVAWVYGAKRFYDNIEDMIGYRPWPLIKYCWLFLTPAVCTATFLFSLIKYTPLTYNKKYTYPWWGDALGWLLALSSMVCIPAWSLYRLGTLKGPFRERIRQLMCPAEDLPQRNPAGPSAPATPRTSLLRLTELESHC
- assayName: [3H]GABA uptake assay, CHO cells stably expressing hGAT2
- Format: cell-based
pIC50: −log10 of the molar value.
outcomeMeasure: pIC50

Q. Which measured pIC50 value corresponds to NC12CC(C(=O)O)(C1)C2 ?
A. < 4.00

----------
- experimentalSystem: hBGT1 wt (Homo sapiens, UniProt P48065)
- assayName: [3H]GABA uptake assay, wild type hBGT1 transiently expressed in tsA201 cells
outcomeMeasure: pIC50
// pIC50 is dimensionless: -log10 of concentration (M)

Q. Request - read-out pIC50 | tested on hBGT1 wt (Homo sapiens, UniProt P48065) | compound NC12CC(C(=O)O)(C1)C2
A. 4.47

----------
- experimentalSystem: hGAT1 (Homo sapiens, UniProt P30531)
- Sequence (P30531 whole entry): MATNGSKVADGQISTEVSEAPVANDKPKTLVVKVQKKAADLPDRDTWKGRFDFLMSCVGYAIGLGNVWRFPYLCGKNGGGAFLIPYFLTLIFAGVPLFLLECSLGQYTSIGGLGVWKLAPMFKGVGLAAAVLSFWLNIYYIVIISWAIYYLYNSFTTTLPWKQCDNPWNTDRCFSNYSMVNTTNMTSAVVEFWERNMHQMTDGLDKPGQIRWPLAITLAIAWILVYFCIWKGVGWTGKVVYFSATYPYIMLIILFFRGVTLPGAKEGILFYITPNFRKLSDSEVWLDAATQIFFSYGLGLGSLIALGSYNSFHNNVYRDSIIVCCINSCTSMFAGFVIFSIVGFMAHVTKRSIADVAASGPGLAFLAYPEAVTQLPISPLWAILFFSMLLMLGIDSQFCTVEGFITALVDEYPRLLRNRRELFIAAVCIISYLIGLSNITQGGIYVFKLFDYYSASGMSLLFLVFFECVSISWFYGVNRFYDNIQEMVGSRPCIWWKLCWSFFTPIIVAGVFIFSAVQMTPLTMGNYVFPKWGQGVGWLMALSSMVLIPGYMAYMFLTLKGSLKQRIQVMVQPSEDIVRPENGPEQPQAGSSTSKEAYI
- assayName: [3H]GABA uptake assay, CHO cells stably expressing hGAT1
outcomeMeasure: IC50

Q. Which measured IC50 value corresponds to NC12CC(C(=O)O)(C1)C2 ?
A. > 100 µM

----------
- experimentalSystem: hBGT1 (Homo sapiens)
- assayName: [3H]GABA uptake assay, CHO cells stably expressing hBGT1
outcomeMeasure: IC50 (µM)
Response body: numeric value in µM, unit text excluded.

Q. Which measured IC50 value corresponds to NC12CC(C(=O)O)(C1)C2 ?
A. 13.9

----------
- experimentalSystem: hBGT1 E52A (Homo sapiens, UniProt P48065, E52A)
- Sequence (P48065 1-614 E52A): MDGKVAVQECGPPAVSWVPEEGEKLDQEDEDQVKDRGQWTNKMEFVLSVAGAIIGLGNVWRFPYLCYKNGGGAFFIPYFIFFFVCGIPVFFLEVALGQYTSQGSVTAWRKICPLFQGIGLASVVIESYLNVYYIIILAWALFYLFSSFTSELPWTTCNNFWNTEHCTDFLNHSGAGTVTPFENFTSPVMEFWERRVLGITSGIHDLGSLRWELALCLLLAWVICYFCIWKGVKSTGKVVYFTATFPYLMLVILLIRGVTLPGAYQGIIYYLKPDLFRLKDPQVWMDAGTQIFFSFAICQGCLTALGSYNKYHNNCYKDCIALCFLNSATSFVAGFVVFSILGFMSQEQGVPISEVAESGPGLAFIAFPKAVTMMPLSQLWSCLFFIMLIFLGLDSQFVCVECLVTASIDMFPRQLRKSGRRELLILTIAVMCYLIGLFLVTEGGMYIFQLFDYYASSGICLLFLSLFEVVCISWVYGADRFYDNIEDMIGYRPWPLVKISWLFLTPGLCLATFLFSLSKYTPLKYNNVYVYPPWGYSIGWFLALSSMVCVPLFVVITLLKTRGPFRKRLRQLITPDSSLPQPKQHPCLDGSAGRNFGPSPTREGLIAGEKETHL
- assayName: [3H]GABA uptake assay, hBGT1 mutant E52A in tsA201 cells
outcomeMeasure: IC50 (µM)
Response body: numeric value in µM, unit text excluded.

Q. Request - read-out IC50 | tested on hBGT1 E52A (Homo sapiens, UniProt P48065, E52A) | molecule NC12CC(C(=O)O)(C1)C2
A. 64.2
